- Test system: T47D
- method: MTT cytotoxicity assay, T47D
- Type: cell-based, human
- cond: Homo sapiens, T47D, 48 h, read-out: Cytotoxicity (IC50) T47D, MTT assay, 48 h of treatment
pIC50: −log10 of the molar value.
measured_endpoint: pIC50

- CC/C(=C(\c1ccccc1)c1ccc(OCCN(C)C)cc1)c1ccccc1: 4.89
